Kindly supply the reported normalized growth values for the records listed here.
assay: chemical genetic growth profiling, strain panel (AID 1159580);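 note: tested at 20 µM; growth read once vehicle control cultures reached saturation at 30 °C; 1 = growth at the plate median or of vehicle wells; lower values mean less growth of the strain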; settings: S. cerevisiae deletion strains, growth OD, locus YJL157C, strain FAR1, hits give low values
In all, about 5,500 compounds went through this assay and about 2,000 (36%) were called active. Inconclusive results (about 18%) are left out. Some of the results follow.
One number for each entry.

// solved cases for normalized growth follow
Clc1ccc(N/N=C\c2sccc2Oc2ccccc2)cc1; 0.316
O=c1c(-c2ccccc2)c(O)c2cccc3c4c(n1c23)CCCC4; 0.243
O=C(Nc1cccnc1)c1cc2c(s1)-c1ccccc1CC2; 0.73

Provide normalized growth for all items below, preserving their order.
1. COc1ccc(C2CC(c3ccc(C)cc3C)=NN2C(C)=O)cc1 (centres undefined)
2. O=c1c(-c2ccccc2)c(O)c2cccc3c4ccccc4n1c23
3. CS/C(Nc1cccc(C(F)(F)F)c1)=C(/C#N)S(=O)(=O)c1ccc(Cl)cc1
4. CC(C)(C)c1ccc(C(=O)NNC(=S)Nc2ccc(Cl)cc2)cc1
5. S=C(N/N=C\c1cccs1)NC1CC2CCC1C2 (centres undefined)
6. FC(F)(F)c1cc(-c2ccc(Cl)cc2)n[nH]1

Result:
1: 0.889; 2: 0.0913; 3: 0.954; 4: 0.953; 5: 0.885; 6: 0.813

Ref: PubChem BioAssay AID1159580
